test: total protein half-life in vivo (active degradation + dilution); higher = more stable protein; conditions: E. coli NCM3722 delta-hslV; growth: N-lim chemostat; doubling time 6 h
ASSAY_METRIC: total protein half-life in vivo (h)
Unit h implied. Number only.

Query block: Indicate the recorded total protein half-life in vivo value for this sequence: MSKIKGNVKWFNESKGFGFITPEDGSKDVFVHFSAIQTNGFKTLAEGQRVEFEITNGAKGPSAANVIAL [P0A972]
Result block: 1.7

###

Overview of reported total protein half-life in vivo across a group of sequences:
test: total protein half-life in vivo (active degradation + dilution); higher = more stable protein; settings: E. coli NCM3722 delta-clpP delta-lon delta-hslV; growth: N-lim chemostat; doubling time 6 h
Unit h implied. Number only.

Field: example entries. Status: answers known.
CHAIN	ASSAY_METRIC	MEASURED
MLKTIRKHGITLALFAAGSTGLTAAINQMTKTTIAEQASLQQKALFDQVLPAERYNNALAQSCYLVTAPELGKGEHRVYIAKQDDKPVAAVLEATAPDGYSGAIQLLVGADFNGTVLGTRVTEHHETPGLGDKIELRLSDWITHFAGKKISGADDAHWAVKKDGGDFDQFTGATITPRAVVNAVKRAGLYAQTLPAQLSQLPACGE	total protein half-life in vivo	5.83
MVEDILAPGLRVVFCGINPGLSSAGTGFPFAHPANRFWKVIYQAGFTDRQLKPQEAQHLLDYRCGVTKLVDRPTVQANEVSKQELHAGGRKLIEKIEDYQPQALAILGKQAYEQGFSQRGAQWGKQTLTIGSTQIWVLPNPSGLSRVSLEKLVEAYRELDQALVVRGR [P0A9H1]	total protein half-life in vivo	5.34
MKVMRTTVATVVAATLSMSAFSVFAEASLTGAGATFPAPVYAKWADTYQKETGNKVNYQGIGSSGGVKQIIANTVDFGASDAPLSDEKLAQEGLFQFPTVIGGVVLAVNIPGLKSGELVLDGKTLGDIYLGKIKKWDDEAIAKLNPGLKLPSQNIAVVRRADGSGTSFVFTSYLAKVNEEWKNNVGTGSTVKWPIGLGGKGNDGIAAFVQRLPGAIGYVEYAYAKQNNLAYTKLISADGKPVSPTEENFANAAKGADWSKTFAQDLTNQKGEDAWPITSTTFILIHKDQKKPEQGTEVLKFFDWAYKTGAKQANDLDYASLPDSVVEQVRAAWKTNIKDSSGKPLY [P0AG82]	total protein half-life in vivo	4.1
MTEPLKPRIDFDGPLEVDQNPKFRAQQTFDENQAQNFAPATLDEAQEEEGQVEAVMDAALRPKRSLWRKMVMGGLALFGASVVGQGVQWTMNAWQTQDWVALGGCAAGALIIGAGVGSVVTEWRRLWRLRQRAHERDEARDLLHSHGTGKGRAFCEKLAQQAGIDQSHPALQRWYASIHETQNDREVVSLYAHLVQPVLDAQARREISRSAAESTLMIAVSPLALVDMAFIAWRNLRLINRIATLYGIELGYYSRLRLFKLVLLNIAFAGASELVREVGMDWMSQDLAARLSTRAAQGIGAGLLTARLGIKAMELCRPLPWIDDDKPRLGDFRRQLIGQVKETLQKGKTPSEK [P0A8R7]	total protein half-life in vivo	5.42

Consider now this further sequence.
Query block: Indicate the recorded total protein half-life in vivo value for this sequence: `MNSIFTEENLLAFTTAARFGSFSKAAEELGLTTSAISYTIKRMETGLDVVLFTRSTRSIELTESGRYFFRKATDLLNDFYAIKRRIDTISQGIEARVRICINQLLYTPKHTARLLQVLKKQFPTCQITVTTEVYNGVWDAIINNQANIAIGAPDTLLDGGGIDYTEIGAIRWAFAIAPDHPLAFVPEPIAESQLRLYPNIMVEDTAHTINKKVGWLLHGQESILVPDFNTKCQCQILGEGIGFLPDYMVREAMTQSLLVTRQIHNPRQDSRMLLATQHSATGQVTQWIKKQFAPNGILTGIYQDLLHREN`
Result block: 5.9

###

assay: total protein half-life in vivo (active degradation + dilution); higher = more stable protein; settings: wild type E. coli NCM3722; growth: N-lim chemostat; doubling time 12 h
Overview of reported total protein half-life in vivo across a group of sequences:
Unit h implied. Number only.

CHAIN	READING_UNIT	total protein half-life in vivo
MATAKKITIHDVALAAGVSVSTVSLVLSGKGRISTATGERVNAAIEELGFVRNRQASALRGGQSGVIGLIVRDLSAPFYAELTAGLTEALEAQGRMVFLLHGGKDGEQLAQRFSLLLNQGVDGVVIAGAAGSSDDLRRMAEEKAIPVIFASRASYLDDVDTVRPDNMQAAQLLTEHLIRNGHQRIAWLGGQSSSLTRAERVGGYCATLLKFGLPFHSDWVLECTSSQKQAAEAITALLRHNPTISAVVCYNETIAMGAWFGLLKAGRQSGESGVDRYFEQQVSLAAFTDATPTTLDDIPVTWASTPARELGITLADRMMQKITHEETHSRNLIIPARLIAAK	h	8.39

Query block: Indicate the recorded total protein half-life in vivo value for this sequence: `MAHRPRWTLSQVTELFEKPLLDLLFEAQQVHRQHFDPRQVQVSTLLSIKTGACPEDCKYCPQSSRYKTGLEAERLMEVEQVLESARKAKAAGSTRFCMGAAWKNPHERDMPYLEQMVQGVKAMGLEACMTLGTLSESQAQRLANAGLDYYNHNLDTSPEFYGNIITTRTYQERLDTLEKVRDAGIKVCSGGIVGLGETVKDRAGLLLQLANLPTPPESVPINMLVKVKGTPLADNDDVDAFDFIRTIAVARIMMPTSYVRLSAGREQMNEQTQAMCFMAGANSIFYGCKLLTTPNPEEDKDLQLFRKLGLNPQQTAVLAGDNEQQQRLEQALMTPDTDEYYNAAAL`
Result block: 1.09

Query block: Indicate the recorded total protein half-life in vivo value for this sequence: `MDYVCSVVFICQSFDLIINRRVISFKKNSLFIVSDKIRRELPVCPSKLRIVDIDKKTCLSFFIDVNNELPGKFTLDKNGYIAEEEPPLSLVFSLFEGIKIADSHSLWLKERLCISLLAMFKKRESVNSFILTNINTFTCKITGIISFNIERQWHLKDIAELIYTSESLIKKRLRDEGTSFTEILRDTRMRYAKKLITSNSYSINVVAQKCGYNSTSYFICAFKDYYGVTPSHYFEKIIGVTDGINKTID`
Result block: 5.67

###

Overview of reported total protein half-life in vivo across a group of sequences:
assay: total protein half-life in vivo (active degradation + dilution); higher = more stable protein; details: wild type E. coli NCM3722; growth: N-lim chemostat; doubling time 12 h
Unit h implied. Number only.

Field: example entries. Status: answers known.
CHAIN	total protein half-life in vivo / h
MTTKKADYIWFNGEMVRWEDAKVHVMSHALHYGTSVFEGIRCYDSHKGPVVFRHREHMQRLHDSAKIYRFPVSQSIDELMEACRDVIRKNNLTSAYIRPLIFVGDVGMGVNPPAGYSTDVIIAAFPWGAYLGAEALEQGIDAMVSSWNRAAPNTIPTAAKAGGNYLSSLLVGSEARRHGYQEGIALDVNGYISEGAGENLFEVKDGVLFTPPFTSSALPGITRDAIIKLAKELGIEVREQVLSRESLYLADEVFMSGTAAEITPVRSVDGIQVGEGRCGPVTKRIQQAFFGLFTGETEDKWGWLDQVNQ [P0AB80]	5.36
MNNTPRYPQRVRNDLRFRELTVLRVERISAGFQRIVLGGEALDGFTSRGFDDHSKLFFPQPDAHFVPPTVTEEGIVWPEGPRPPSRDYTPLYDELRHELAIDFFIHDGGVASGWAMQAQPGDKLTVAGPRGSLVVPEDYAYQLYVCDESGMPALRRRLETLSKLAVKPQVSALVSVRDNACQDYLAHLDGFNIEWLAHDEQAVDARLAQMQIPADDYFIWITGEGKVVKNLSRRFEAEQYDPQRVRAAAYWHAK	7.07

Consider now this further sequence.
Query block: Indicate the recorded total protein half-life in vivo value for this sequence: `MVFRIASSPYTHNQRQTSRIMLLVLLAAVPGIAAQLWFFGWGTLVQILLASVSALLAEALVLKLRKQSVAATLKDNSALLTGLLLAVSIPPLAPWWMVVLGTVFAVIIAKQLYGGLGQNPFNPAMIGYVVLLISFPVQMTSWLPPHEIAVNIPGFIDAIQVIFSGHTASGGDMNTLRLGIDGISQATPLDTFKTSVRAGHSVEQIMQYPIYSGILAGAGWQWVNLAWLAGGVWLLWQKAIRWHIPLSFLVTLALCAMLGWLFSPETLAAPQIHLLSGATMLGAFFILTDPVTASTTNRGRLIFGALAGLLVWLIRSFGGYPDGVAFAVLLANITVPLIDYYTRPRVYGHRKG`
Result block: 9.64

###

Overview of reported total protein half-life in vivo across a group of sequences:
test: total protein half-life in vivo (active degradation + dilution); higher = more stable protein; settings: E. coli NCM3722 delta-hslV; growth: N-lim chemostat; doubling time 6 h
Unit h implied. Number only.

Field: example entries. Status: answers known.
CHAIN	total protein half-life in vivo, h
MIEILHEYWKPLLWTDGYRFTGVAITLWLLILSVVIGGVLALFLAIGRVSSNKYIQFPIWLFTYIFRGTPLYVQLLVFYSGMYTLEIVKGTEFLNAFFRSGLNCTVLALTLNTCAYTTEIFAGAIRSVPHGEIEAARAYGFSTFKMYRCIILPSALRIALPAYSNEVILMLHSTALAFTATVPDLLKIARDINAATYQPFTAFGIAAVLYLIISYVLISLFRRAEKRWLQHVKPSSTH [P0AEU3]	6.07
MLYIFDLGNVIVDIDFNRVLGAWSDLTRIPLASLKKSFHMGEAFHQHERGEISDEAFAEALCHEMALPLSYEQFSHGWQAVFVALRPEVIAIMHKLREQGHRVVVLSNTNRLHTTFWPEEYPEIRDAADHIYLSQDLGMRKPEARIYQHVLQAEGFSPSDTVFFDDNADNIEGANQLGITSILVKDKTTIPDYFAKVLC [P0A8Y3]	3.94
MKILVDENMPYARDLFSRLGEVTAVPGRPIPVAQLADADALMVRSVTKVNESLLAGKPIKFVGTATAGTDHVDEAWLKQAGIGFSAAPGCNAIAVVEYVFSSLLMLAERDGFSLYDRTVGIVGVGNVGRRLQARLEALGIKTLLCDPPRADRGDEGDFRSLDELVQRADILTFHTPLFKDGPYKTLHLADEKLIRSLKPGAILINACRGAVVDNTALLTCLNEGQKLSVVLDVWEGEPELNVELLKKVDIGTSHIAGYTLEGKARGTTQVFEAYSKFIGHEQHVALDTLLPAPEFGRITLHGPLDQPTLKRLVHLVYDVRRDDAPLRKVAGIPGEFDKLRKNYLERREWSSLYVICDDASAASLLCKLGFNAVHHPAR	5.17
MPELPEVETSRRGIEPHLVGATILHAVVRNGRLRWPVSEEIYRLSDQPVLSVQRRAKYLLLELPEGWIIIHLGMSGSLRILPEELPPEKHDHVDLVMSNGKVLRYTDPRRFGAWLWTKELEGHNVLTHLGPEPLSDDFNGEYLHQKCAKKKTAIKPWLMDNKLVVGVGNIYASESLFAAGIHPDRLASSLSLAECELLARVIKAVLLRSIEQGGTTLKDFLQSDGKPGYFAQELQVYGRKGEPCRVCGTPIVATKHAQRATFYCRQCQK	6.03
MSDVLRPYRDLFPQIGQRVMIDDSSVVIGDVRLADDVGIWPLVVIRGDVHYVQIGARTNIQDGSMLHVTHKSSYNPDGNPLTIGEDVTVGHKVMLHGCTIGNRVLVGMGSILLDGAIVEDDVMIGAGSLVPQNKRLESGYLYLGSPVKQIRPLSDEEKAGLRYSANNYVKWKDEYLDQGNQTQP [P0A9W9]	5.34
MDKSKRHLAWWVVGLLAVAAIVAWWLLRPAGVPEGFAVSNGRIEATEVDIASKIAGRIDTILVKEGKFVREGEVLAKMDTRVLQEQRLEAIAQIKEAQSAVAAAQALLEQRQSETRAAQSLVNQRQAELDSVAKRHTRSRSLAQRGAISAQQLDDDRAAAESARAALESAKAQVSASKAAIEAARTNIIQAQTRVEAAQATERRIAADIDDSELKAPRDGRVQYRVAEPGEVLAAGGRVLNMVDLSDVYMTFFLPTEQAGTLKLGGEARLILDAAPDLRIPATISFVASVAQFTPKTVETSDERLKLMFRVKARIPPELLQQHLEYVKTGLPGVAWVRVNEELPWPDDLVVRLPQ	6.68
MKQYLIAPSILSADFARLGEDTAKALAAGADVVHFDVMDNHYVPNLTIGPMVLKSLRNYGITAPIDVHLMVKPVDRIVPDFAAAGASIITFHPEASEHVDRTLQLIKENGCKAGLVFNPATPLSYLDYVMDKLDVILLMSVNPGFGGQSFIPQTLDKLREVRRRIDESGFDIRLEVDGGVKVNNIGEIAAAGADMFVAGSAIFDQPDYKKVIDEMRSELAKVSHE [P0AG07]	5.6
MSAFTPASEVLLRHSDDFEQSRILFAGDLQDDLPARLDTAASRAHTQQFHHWQVLSRQMGDNARFSLVATADDVADCDTLIYYWPKNKPEAQFQLMNLLSLLPVGTDIFVVGENRSGVRSAEQMLADYAPLNKVDSARRCGLYFGRLEKQPVFDAEKFWGEYSVDGLTVKTLPGVFSRDGLDVGSQLLLSTLTPHTKGKVLDVGCGAGVLSVAFARHSPKIRLTLCDVSAPAVEASRATLAANGVEGEVFASNVFSEVKGRFDMIISNPPFHDGMQTSLDAAQTLIRGAVRHLNSGGELRIVANAFLPYPDVLDETFGFHEVIAQTGRFKVYRAIMTRQAKKG	6.2

Query block: Indicate the recorded total protein half-life in vivo value for this sequence: `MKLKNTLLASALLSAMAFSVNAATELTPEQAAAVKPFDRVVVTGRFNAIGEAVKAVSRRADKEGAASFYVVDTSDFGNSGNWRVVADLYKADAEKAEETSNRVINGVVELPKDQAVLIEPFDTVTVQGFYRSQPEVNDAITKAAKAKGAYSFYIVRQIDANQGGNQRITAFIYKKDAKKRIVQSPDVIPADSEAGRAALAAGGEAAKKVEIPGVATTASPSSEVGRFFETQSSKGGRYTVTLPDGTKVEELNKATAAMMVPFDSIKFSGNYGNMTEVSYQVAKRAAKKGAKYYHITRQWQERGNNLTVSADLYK`
Result block: 5.8

Query block: Indicate the recorded total protein half-life in vivo value for this sequence: `MERLKRMSVFAKVVEFGSFTAAARQLQMSVSSISQTVSKLEDELQVKLLNRSTRSIGLTEAGRIYYQGCRRMLHEVQDVHEQLYAFNNTPIGTLRIGCSSTMAQNVLAGLTAKMLKEYPGLSVNLVTGIPAPDLIADGLDVVIRVGALQDSSLFSRRLGAMPMVVCAAKSYLTQYGIPEKPADLSSHSWLEYSVRPDNEFELIAPEGISTRLIPQGRFVTNDPMTLVRWLTAGAGIAYVPLMWVINEINRGELEILLPRYQSDPRPVYALYTEKDKLPLKVQVVINSLTDYFVEVGKLFQEMHGRGKEK`
Result block: 6.51
